This listing pairs compounds with measured log10 IC50.
Test system: U87MG tumour cells
runDescription: Test of in vitro proliferation of U87MG tumour cells
Format: cell-based
measurementContext: Homo sapiens, U-87 MG, 72 h, U87MG cells, 72 hours; read-out: U87 Cell Proliferation IC50
attributeMeasured: log10 IC50 (log10 of the value in nM)

>>> print(df.to_string())
                                         mol  attributemeasured  reported
 0  CCN1CC(C)(C)Oc2nc(N3CCOC[C@@H]3C)nc(-c3ccc(NC(=O)Nc4cc(C)nc(C)n4)cc3)c2C1=O         log10 IC50      2.61
 1  CCN1CC(C)(C)Oc2nc(N3CC4CCC(C3)O4)nc(-c3ccc(NC(=O)Nc4ccc(C#N)nc4)c(F)c3)c2C1=O         log10 IC50      1.79
 2  CCN1CC(C)(C)Oc2nc(N3CC4CCC(C3)O4)nc(-c3ccc(NC(=O)Nc4cccc(OC(F)F)c4)cc3)c2C1=O         log10 IC50      1.80
 3  CCN1CC(C)(C)Oc2nc(N3CC4CCC(C3)O4)nc(-c3ccc(NC(=O)Nc4cnccn4)cc3)c2C1=O         log10 IC50      2.41
 4  CCN1CC(C)(C)Oc2nc(N3CC4CCC(C3)O4)nc(-c3ccc(NC(=O)Nc4cnn(C)c4)c(F)c3)c2C1=O         log10 IC50      2.47
 5  CCNC(=O)Nc1ccc(-c2nc(N3CC4CCC(C3)O4)nc3c2C(=O)N(CC)CC(C)(C)CO3)cc1         log10 IC50      3.94
 6  CNC(=O)Nc1ccc(-c2nc(N3CCOC[C@@H]3C)nc3c2C(=O)N(CCOC)CC(C)(C)O3)cc1F         log10 IC50      2.56
 7  CCN1CC(C)(C)Oc2nc(N3CCOC[C@@H]3C)nc(-c3ccc(NC(=O)Nc4cc(OC)ccn4)cc3)c2C1=O         log10 IC50      2.57
 8  CCN1CC(C)(C)Oc2nc(N3C4CCC3COC4)nc(-c3ccc(NC(=O)OCCO)cc3F)c2C1=O         log10 IC50      2.79
 9  CCN1CC(C)(C)Oc2nc(N3CC4CCC(C3)O4)nc(-c3ccc(NC(=O)NC4COC4)c(F)c3)c2C1=O         log10 IC50      3.12
10  CCN1CC(C)(C)Oc2nc(N3CCOC[C@@H]3C)nc(-c3ccc(NC(=O)Nc4cccc(C)n4)cc3)c2C1=O         log10 IC50      2.84
11  CC1(C)CN(C2CCOCC2)C(=O)c2c(nc(N3CC4CCC(C3)O4)nc2-c2ccc(NC(=O)Nc3ccon3)cc2)O1         log10 IC50      2.41
12  CCN1CC(C)(C)Oc2nc(N3CC4CCC(C3)O4)nc(-c3ccc(NC(=O)Nc4ccc(OC5CCN(C)CC5)nc4)c(F)c3)c2C1=O         log10 IC50      1.83
13  CCN1CC(C)(C)Oc2nc(N3CC4CCC(C3)O4)nc(-c3ccc(NC(=O)Nc4cc(C)on4)cc3)c2C1=O         log10 IC50      2.45
14  CCN1CC(C)(C)Oc2nc(N3CCOC[C@@H]3C)nc(-c3ccc(NC(=O)Nc4ccc(C(=O)NCC(C)(C)O)cc4)cc3)c2C1=O         log10 IC50      2.64
15  CCN1CC(C)(C)Oc2nc(N3CC4CCC(C3)O4)nc(-c3ccc(NC(=O)Nc4cc(OC)c(F)cc4F)cc3)c2C1=O         log10 IC50      2.15
16  CCN1CC(C)(C)Oc2nc(N3CCOC[C@@H]3C)nc(-c3ccc(NC(=O)Nc4ccon4)c(C)c3)c2C1=O         log10 IC50      3.55
17  CNC(=O)Nc1ccc(-c2nc(N3CC4CCC(C3)O4)nc3c2C(=O)N(C)CC(C)(C)O3)cc1F         log10 IC50      1.93
18  CC[C@H]1COCCN1c1nc2c(c(-c3ccc(NC(=O)Nc4ccc(C)nc4)c(F)c3)n1)C(=O)N(CC)CC(C)(C)O2         log10 IC50      2.94
19  Cc1ccc(NC(=O)Nc2ccc(-c3nc(N4C5CCC4COC5)nc4c3C(=O)N(C)CC(C)(C)O4)cc2F)cn1         log10 IC50      1.84
20  COc1ccnc(NC(=O)Nc2ccc(-c3nc(N4CC5CCC(C4)O5)nc4c3C(=O)N(C)CC(C)(C)O4)cc2)c1         log10 IC50      2.74
21  CCN1CC(C)(C)Oc2nc(N3CC4CCC(C3)O4)nc(-c3ccc(Nc4nnc(-c5ccc(OC)nc5)[nH]4)c(F)c3)c2C1=O         log10 IC50      2.88
